Target: DRB3*0101 (Homo sapiens, UniProt P01903+P79483)
Assay: biochemical
Provide the reported IC50 of each item.
Your answer should be a number followed by the unit of measure.

Sample answers from the record:
CC[C@H](C)[C@H](NC(=O)[C@@H](NC(=O)[C@H](CCCNC(=N)N)NC(=O)[C@H](CC(=O)O)NC(=O)[C@H](C)NC(=O)[C@H](CCCCN)NC(=O)[C@H](Cc1ccccc1)NC(=O)[C@H](CC(N)=O)NC(=O)[C@H](C)NC(=O)CNC(=O)[C@H](CCSC)NC(=O)[C@@H](N)CCC(=O)O)C(C)C)C(=O)N[C@@H](CC(=O)O)C(=O)N1CCC[C@H]1C(=O)N[C@@H](CCCNC(=N)N)C(=O)O ... 96 nM
CC[C@H](C)[C@H](N)C(=O)NCC(=O)N[C@@H](CCCCN)C(=O)N[C@@H](CCSC)C(=O)N[C@@H](Cc1ccccc1)C(=O)N[C@@H](CCC(=O)O)C(=O)N[C@@H](C)C(=O)N[C@H](C(=O)N[C@@H](C)C(=O)N[C@@H](CCCNC(=N)N)C(=O)NCC(=O)N[C@@H](C)C(=O)N[C@@H](CCCNC(=N)N)C(=O)N[C@@H](CCCNC(=N)N)C(=O)N[C@@H](CCSC)C(=O)O)[C@@H](C)O ... 424 nM

Next compound, please.
Record CC[C@H](C)[C@H](NC(=O)[C@H](CC(=O)O)NC(=O)CNC(=O)[C@@H](NC(=O)[C@@H](NC(=O)[C@@H](NC(=O)[C@@H](NC(=O)[C@H](CC(C)C)NC(=O)[C@@H](N)CCCCN)[C@@H](C)O)C(C)C)C(C)C)C(C)C)C(=O)N[C@H](C(=O)NCC(=O)N[C@H](C(=O)N[C@@H](CC(C)C)C(=O)N[C@@H](CCC(=O)O)C(=O)N[C@@H](CCC(N)=O)C(=O)O)C(C)C)[C@@H](C)CC , field IC50: 1680 nM

* * *

Molecular target: DRB1*0802 (Homo sapiens, UniProt P01903+P01911, A100R/A103L/A169T/F76Y/H45Y/I96F/K41T/L162R/M171V/P40S/Q125H/Q178H/Q39Y/Q99D/R218S/R42G/S66Y/V115G/W38E)
Test: biochemical
Task for the reader: assign each of the following compounds its reported IC50.
Give bare numbers, in µM.

Previously resolved entries follow.
CC[C@H](C)[C@H](NC(=O)[C@H](C)NC(=O)[C@H](CC(N)=O)NC(=O)[C@H](CO)NC(=O)[C@H](C)NC(=O)[C@H](CC(C)C)NC(=O)[C@H](CCCNC(=N)N)NC(=O)[C@H](CC(C)C)NC(=O)[C@H](CC(=O)O)NC(=O)[C@H](CCCNC(=N)N)NC(=O)[C@H](CCCNC(=N)N)NC(=O)[C@H](Cc1c[nH]cn1)NC(=O)[C@H](Cc1ccccc1)NC(=O)[C@H](Cc1ccc(O)cc1)NC(=O)[C@@H](N)CCSC)C(=O)O ... 0.0078
CC(C)C[C@H](NC(=O)[C@H](CCC(=O)O)NC(=O)[C@H](CCCCN)NC(=O)[C@@H](N)CCCNC(=N)N)C(=O)N[C@@H](CC(C)C)C(=O)N[C@H](C(=O)N[C@H](C(=O)N[C@@H](Cc1ccccc1)C(=O)N[C@@H](CCCCN)C(=O)N[C@@H](CC(N)=O)C(=O)N[C@@H](C)C(=O)N[C@@H](Cc1c[nH]cn1)C(=O)N[C@@H](C)C(=O)N[C@@H](CCCCN)C(=O)N[C@@H](CCCCN)C(=O)O)[C@@H](C)O)C(C)C ... 0.0072
CC[C@H](C)[C@H](NC(=O)[C@H](CC(C)C)NC(=O)[C@H](CCCNC(=N)N)NC(=O)CNC(=O)[C@@H](N)CC(N)=O)C(=O)N[C@H](C(=O)N[C@@H](C)C(=O)N[C@@H](CC(N)=O)C(=O)N1CCC[C@H]1C(=O)N[C@H](C(=O)N[C@H](C(=O)N[C@H](C(=O)N[C@@H](CCCCN)C(=O)N[C@@H](CCCCN)C(=O)N[C@@H](CCC(=O)O)C(=O)O)[C@@H](C)O)C(C)C)C(C)C)[C@@H](C)O ... 0.288
CSCC[C@H](NC(=O)[C@H](CCC(N)=O)NC(=O)[C@H](C)NC(=O)[C@H](Cc1ccc(O)cc1)NC(=O)[C@H](C)NC(=O)[C@H](CCCCN)NC(=O)CNC(=O)[C@H](CC(C)C)NC(=O)[C@H](CS)NC(=O)[C@H](C)NC(=O)[C@@H](NC(=O)[C@H](CCC(=O)O)NC(=O)[C@H](CCCNC(=N)N)NC(=O)[C@H](CC(C)C)NC(=O)[C@@H](N)CO)[C@@H](C)O)C(=O)N[C@@H](Cc1c[nH]c2ccccc12)C(=O)N[C@H](C(=O)O)[C@@H](C)O ... 0.551
CC(C)C[C@H](NC(=O)[C@H](CCCNC(=N)N)NC(=O)[C@H](Cc1c[nH]cn1)NC(=O)[C@H](CC(=O)O)NC(=O)[C@H](CS)NC(=O)[C@H](CC(C)C)NC(=O)[C@H](CCC(N)=O)NC(=O)[C@@H](NC(=O)[C@H](Cc1ccc(O)cc1)NC(=O)[C@@H](NC(=O)[C@H](CCC(=O)O)NC(=O)[C@H](CCCNC(=N)N)NC(=O)[C@H](CC(C)C)NC(=O)[C@H](CCCCN)NC(=O)[C@@H](N)CC(C)C)C(C)C)[C@@H](C)O)C(=O)O ... 2.58
CC(C)C[C@H](NC(=O)[C@H](C)NC(=O)[C@H](CC(C)C)NC(=O)[C@@H]1CCCN1)C(=O)N[C@@H](CCCCN)C(=O)N[C@@H](CCC(=O)O)C(=O)N[C@@H](Cc1ccccc1)C(=O)N[C@@H](CCCCN)C(=O)N[C@@H](CC(=O)O)C(=O)N[C@@H](Cc1ccccc1)C(=O)N[C@@H](C)C(=O)N[C@@H](C)C(=O)NCC(=O)N[C@@H](CCCNC(=N)N)C(=O)N[C@@H](CCCCN)C(=O)O ... 0.037
CSCC[C@H](NC(=O)CNC(=O)[C@H](CCCCN)NC(=O)[C@H](CC(C)C)NC(=O)[C@H](CCC(=O)O)NC(=O)[C@H](CC(C)C)NC(=O)[C@H](CCCCN)NC(=O)[C@H](CC(=O)O)NC(=O)[C@H](CCSC)NC(=O)[C@H](CCCCN)NC(=O)[C@H](CC(C)C)NC(=O)[C@H](CCCNC(=N)N)NC(=O)[C@H](CS)NC(=O)[C@H](CCCCN)NC(=O)[C@@H](N)CC(C)C)C(=O)O ... 4.46
CC[C@H](C)[C@H](NC(=O)[C@H](CC(=O)O)NC(=O)[C@@H](N)CC(C)C)C(=O)N[C@@H](CCC(=O)O)C(=O)N[C@@H](CC(C)C)C(=O)N[C@@H](CCC(N)=O)C(=O)N[C@@H](CCCCN)C(=O)N[C@H](C(=O)N[C@@H](CCC(=O)O)C(=O)N[C@@H](C)C(=O)N[C@H](C(=O)N[C@@H](CCC(N)=O)C(=O)N[C@@H](CC(C)C)C(=O)N[C@@H](C)C(=O)N[C@H](C(=O)O)[C@@H](C)O)[C@@H](C)O)[C@@H](C)O ... 0.0051

Consider the additional compound presented here.
In plain terms, C[C@@H](O)[C@H](NC(=O)[C@H](CO)NC(=O)[C@H](CO)NC(=O)[C@H](Cc1c[nH]cn1)NC(=O)[C@H](CCC(=O)O)NC(=O)[C@H](CCC(=O)O)NC(=O)[C@@H](N)CCCCN)C(=O)N[C@@H](Cc1c[nH]c2ccccc12)C(=O)N[C@@H](Cc1c[nH]cn1)C(=O)N[C@@H](Cc1ccc(O)cc1)C(=O)N[C@@H](CC(=O)O)C(=O)N[C@@H](CC(=O)O)C(=O)N[C@@H](CCC(=O)O)C(=O)N[C@@H](CC(N)=O)C(=O)N1CCC[C@H]1C(=O)N[C@@H](Cc1ccc(O)cc1)C(=O)N[C@@H](CCCCN)C(=O)O has a documented IC50 of 1.54

The origin of these recorded values is paper PMC3794980.
